- TEST_PROTOCOL: soluble on expression in E. coli; label from the status in PepcDB or PDB records
REPORTED_METRIC: soluble on expression in E. coli

Lookup: Supply reported soluble on expression in E. coli belonging to this sequence: MNKPVAIFLMGPTASGKTDLAIALRKQLPVEVISVDSALIYKEMDIGTAKPTAAELAQAPHRLIDILDPKESYSAMHFHADALHAMADITASGRIPLLVGGTMLYYKALLEGLSPLPSANEHIRTEIEAHANQYGWASLHQQLTQIDPLAASRINANDSQRINRALEVFYLTGKNLTELTAQQGECLPYQVLQFAIAPQERAVLHQRIEQRFHKMMELGFLTEVEKLYARGDLHPDLPAIRCVGYRQMWQHLAGEISLDEAIYKGICATRQLAKRQLTWLRGWRSEITWLDSLDPTSSQEKMIQNLEQNFIKLLEHHHHHH
Found: soluble

Lookup: Supply measured soluble on expression in E. coli of MAHHHHHHMVRKVWIGQGDVVLVSKRSFNKNDIVDVIHRYNPAEVRALVKDEVIPRDFRSSDERDAKNAHSDYVFVAENDDDGGADDDDQNVLDRNKVVLDDPLATFDEL in your reply.
Found: not soluble

Lookup: Query soluble on expression in E. coli for GPSDMYVHVGNLIYRNLHLFNSEMHESILVSYSSDLIIYRTNTVGDDYIPSCDCTQATYYCKHKNRYFPITVTSHDWYEIQESEYYPKHIQYNLLIGEGPCEPGDCGGKLLCKHGVIGIVTAGGDNHVAFIDLRHFHCAEEQ
Found: soluble

Lookup: Answer with the recorded soluble on expression in E. coli for the sequence listed here: SLTPLRVLIVEDDPRIAQLHQRFCEKVAGFEVSGLAATYEEADELATILEPDLLLLDLYLPDGNGMDLLRQLRSRGQEVDVVLITAAKDVAAVQQALRAGAFDYIVKPAVFARFEEALTKFAAYRQQLEQGDVLNQNDIDQLLHSHHQPKVMDRGAVPKGIDPLTLTKIRQVFADQEQQGLSAEEVGAQIGASRSTARRYLEYMVSISELTADVVYGTVGRPERRYFSFENEG
Found: soluble

Lookup: Retrieve soluble on expression in E. coli measured for MGSDKIHHHHHHMMVLTLKDFEQTYFYKTELIQLCKVYGLPTYGTKAELNKYLTLYLSGTPACDIKVNRKHTTSRNKTKITLETKILGEGFSFNQEARKLFAEYFGKEKFSFKKEMAVIKRQAEHNGETKMTVRDLLERYQEMVGQGNVLRETAEEATYQWNNFVRDFCKSSESQNYHQKLKVAAILWEKVKNSKNDKKFEASLVQKYEKNISNYMNK and print it.
Found: not soluble

Further cases:
Lookup: Output soluble on expression in E. coli of MGSDKIHHHHHHMRKLKREAYKLNNIKMLQQDVKYSEEVIEAEFSVEGYSLIDYKRSYTLSRALVNGKWIVYDGNRLESSQKIKEFEICEDFYHESVKAWPNKEKYSRLFTNIKLNEDDQLKVISKKISKSILIHDVKECREEKVVNYVEYNDLNFSYAGNPKDIPSIVEYLRASQSQLTSPSRQVLTESGRLTFILDSEIVASIFHYVLRNFLNGNSPKLKLNEKISSEITIYDNPLNSFSSSFSVFDDEGVKTKKKEIIGDGIITNYLGTLTSKYGEAGNARGILPKPDYFSLEVKQGDWSLNELIDESRGAYIAMGVKKSELIRNSIRITPRSVVKIGQGQIFFREIAIPLQELVTIDAVTRENRGVFIDEEHGGVTPYVRMKVRAILY
Found: not soluble

Values compiled from the DeepSol protein solubility set.
